experiment: Paramagnetic relaxation properties in human plasma at 37°C
Type: physicochemical
test settings: 37°C, repeat measurement 80 minutes later
Tag: t if measured T₁ changed by (repeat measurement) is not below 5%, f if it is.

[[record]]
chemical_structure = "CSCC[C@H](N)C(=O)O.CSCC[C@H](N)C(=O)O.O.O.[Cl-].[Cl-].[Mn+2]"
class_name = "f"

[[record]]
chemical_structure = "NC(=O)C[C@H]([NH3+])C(=O)[O-].NC(=O)C[C@H]([NH3+])C(=O)[O-].O.O.[Cl-].[Cl-].[Mn+2]"
class_name = "t"

[[record]]
chemical_structure = "NCCCC[C@H](N)C(=O)O.NCCCC[C@H](N)C(=O)O.O.O.[Cl-].[Cl-].[Mn+2]"
class_name = "f"

[[record]]
chemical_structure = "C[C@@H](O)[C@H](N)C(=O)O.C[C@@H](O)[C@H](N)C(=O)O.O.O.[Cl-].[Cl-].[Mn+2]"
class_name = "f"

[[record]]
chemical_structure = "N[C@@H](Cc1ccccc1)C(=O)O.N[C@@H](Cc1ccccc1)C(=O)O.O.O.[Cl-].[Cl-].[Mn+2]"
class_name = "f"

[[record]]
chemical_structure = "N[C@@H](Cc1c[nH]cn1)C(=O)O.N[C@@H](Cc1c[nH]cn1)C(=O)O.O.O.[Cl-].[Cl-].[Mn+2]"
class_name = "t"

[[record]]
chemical_structure = "CC[C@H](C)[C@H](N)C(=O)O.CC[C@H](C)[C@H](N)C(=O)O.O.O.[Cl-].[Cl-].[Mn+2]"
class_name = "f"


These data points were gathered from patent EP0308983A2.
